Tested on: HACAT
measurement.protocol: qHTS assay to identify novel small-molecules to repurpose for Merkel cell carcinoma treatment (AID 1296009); also: nearly all actives have a fitted effect of over 60% in size
experimental.setup: MCC and control cell lines, CellTiter-Glo viability, 72 h; at 44.8 µM (top of the series) unless noted
Records with an inconclusive call do not appear. Activity calls are given as the source filed them. Calls follow the shape of the dose curve; as a rule, active = well fitted inhibition curve with a large enough effect; inconclusive = small, poorly fitted or top-dose-only effect; inactive = flat fitted curve, though single readings scatter.
result.type: outcome

- molecule: "CC(=O)O[C@@H]1C[C@]2(C)[C@@]3(CCC4[C@@]5(C)CC[C@H](O[C@@H]6O[C@H](C(=O)O)[C@@H](O)[C@H](O[C@@H]7O[C@H](CO)[C@H](O)[C@H](O)[C@H]7O[C@@H]7O[C@@H](C)[C@H](O)[C@@H](O)[C@H]7O[C@@H]7OC[C@](O)(CO)[C@H]7O)[C@H]6O[C@@H]6O[C@H](CO)[C@H](O)[C@H](O)[C@H]6O)C(C)(C)C5CC[C@]42C)O[C@@H](O)[C@]12C3CC(C)(C)[C@@H](OC(=O)/C=C/c1ccc(O)c(O)c1)[C@@H]2OC(=O)/C=C/c1ccccc1 (stereo partly specified)"
  outcome: "inactive [at 9.27 µM]"
- molecule: "Clc1ccc2c(c1)C1=NCCN1c1c(-c3noc(C4CC4)n3)ncn1-2"
  outcome: "inactive"
- molecule: "CCCC(N[C@@H](C)C(=O)N1[C@H](C(=O)O)C[C@@H]2CCCC[C@@H]21)C(=O)OCC (stereo partly specified)"
  outcome: "inactive"
- molecule: "C=C[C@H]1[C@H](O[C@@H]2O[C@H](CO[C@@H]3OC[C@](O)(CO)[C@H]3O)[C@@H](O)[C@H](O)[C@H]2O)OC=C2C(=O)OCC[C@H]21"
  outcome: "inactive [at 17.4 µM]"

Given `Cc1nn(C)c(COc2ccc(N3CCN(S(=O)(=O)N(C)C)CC3)cc2)c1-c1cccc2c(CCCOc3cccc4ccccc34)c(C(=O)O)n(CCN3CCOCC3)c12` , state its recorded outcome. inactive

Given O=C(OCc1cccc(O)c1O[C@@H]1O[C@H](CO)[C@@H](O)[C@H](O)[C@H]1O)C1(O)C(=O)C2C=CC1C1C=CC(=O)C(O)(C(=O)OCc3cccc(O)c3O[C@@H]3O[C@H](CO)[C@@H](O)[C@H](O)[C@H]3O)C21 (stereo partly specified) , state its recorded outcome. inactive [at 9.27 µM]

Given COc1cc(/C=C/C(=O)OC2[C@H](O)CC(O)(C(=O)O)C[C@H]2O)ccc1O (stereo partly specified) , state its recorded outcome. inactive

Given CC(=O)OC[C@@]12[C@H](O)C[C@]3(C)C(=CCC4[C@@]5(C)CC[C@H](O[C@@H]6O[C@H](C(=O)O)[C@@H](O[C@@H]7O[C@H](CO)[C@@H](O)[C@H](O)[C@H]7O)[C@H](O)[C@H]6O[C@@H]6O[C@H](CO)[C@@H](O)[C@H](O)[C@H]6O)[C@](C)(CO)C5CC[C@]43C)[C@@H]1CC(C)(C)[C@@H](OC(C)=O)[C@@H]2O (stereo partly specified) , state its recorded outcome. inactive [at 9.27 µM]

Given `CC(=O)OC[C@@]12[C@H](O)C[C@@H](C)[C@]3(C[C@@H](c4ccoc4)OC3=O)[C@H]1C[C@H](O)C[C@]21CO1` , state its recorded outcome. inactive [at 17.4 µM]

Given CC(=O)OC(CSC1CCC(=O)OC(C)CCC(=O)C1)C(=O)O (stereo unspecified) , state its recorded outcome. inactive

Given `CCS(=O)(=O)N1CCC([C@@H](C)n2c(C)c(C(=O)NCc3c(OC)cc(C)[nH]c3=O)c3ccccc32)CC1` , state its recorded outcome. inactive
